target: human bradykinin 1 receptor (B1R) (Homo sapiens); construct: expressed in transfected cells; host or cells: CHO K1 cells; assay: Functional investigation on the human bradykinin 1 receptor (B1R), Ca2+ FLIPR assay in CHO K1 hB1R cells; format: cell-based; conditions: CHO-K1, B1R antagonism human; test substance 10 μM; Ca2+ FLIPR, CHO K1 hB1R cells; read-out: B1R Ant. h [10 μM] % Inhibition
Sequence (P46663 whole entry): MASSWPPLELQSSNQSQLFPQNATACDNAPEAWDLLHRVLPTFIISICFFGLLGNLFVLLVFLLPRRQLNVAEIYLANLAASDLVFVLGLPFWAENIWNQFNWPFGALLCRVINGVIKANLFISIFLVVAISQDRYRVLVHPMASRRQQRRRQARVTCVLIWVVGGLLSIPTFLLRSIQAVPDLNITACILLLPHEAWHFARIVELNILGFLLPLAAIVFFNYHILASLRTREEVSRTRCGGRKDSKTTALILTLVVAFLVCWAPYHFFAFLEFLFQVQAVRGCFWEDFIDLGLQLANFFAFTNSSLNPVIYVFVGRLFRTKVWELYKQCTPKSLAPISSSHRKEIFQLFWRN
reported.property: inhibition at 10 µM (%)
Numbers only here, please. The scale is %.

> print(dat)
                                   compound  measurement.units  value.observed
1  COc1ccc(S(=O)(=O)N(C)CCOCC(=O)NCC2CCC(C(c3cccs3)N(C)C)CC2)cc1 (stereo not shown) [Example 142]                  %              50
2  CN(C)C(c1cccs1)C1CCC(NC(=O)COC2CCN(S(=O)(=O)c3cccc(C(F)(F)F)c3)C2)CC1 (stereo not shown) [Example 11]                  %             -16
3  CN(CCOCC(=O)NC1CCC(C(CCc2ccccc2)N2CCOCC2)CC1)S(=O)(=O)c1c(Cl)cccc1Cl (stereo not shown) [Example 664]                  %              70
4  O=C(COCC1CCCN1S(=O)(=O)c1c(Cl)cc(Cl)cc1Cl)NC1CCC(C(CCc2ccccc2)N2CCCCC2)CC1 (stereo not shown) [Example 697]                  %              71

# input Missing value: inhibition at 10 µM, human bradykinin 1 receptor (B1R) (Homo sapiens), entry O=C(COCC1CCCCN1S(=O)(=O)c1c(Cl)cc(Cl)cc1Cl)NC1CCC(C(c2ccccc2)N2CCOCC2)CC1 (stereo not shown) [Example 700] . Fill in?
# output 38

# input GET /values?readout=inhibition at 10 µM&system=human bradykinin 1 receptor (B1R) (Homo sapiens)&item= COc1cc(C)c(S(=O)(=O)N2CCC(OCC(=O)NC3CCC(C(c4ccccc4)N4CCCC4)CC3)C2)c(C)c1 (stereo not shown) [Example 629]
# output 96

# input Give recorded inhibition at 10 µM with human bradykinin 1 receptor (B1R) (Homo sapiens) for the following compound: COc1ccc(S(=O)(=O)N2CCCCC2COCC(=O)NCCC2CCC(C(c3cccs3)N(C)C)CC2)cc1OC (stereo not shown) [Example 120]
# output -12

====

target: serotonin (5-HT) reuptake (Rattus norvegicus, UniProt P31652); construct: synaptosomes are freshly isolated from areas of the rat brain; from tissue; host or cells: rat brain synaptosomes (P2 fraction); experiment: Inhibition of serotonin (5HT) reuptake in synaptosomes from rat brain; format: biochemical; settings: test concentration of 10 μM
Sequence (P31652 whole entry): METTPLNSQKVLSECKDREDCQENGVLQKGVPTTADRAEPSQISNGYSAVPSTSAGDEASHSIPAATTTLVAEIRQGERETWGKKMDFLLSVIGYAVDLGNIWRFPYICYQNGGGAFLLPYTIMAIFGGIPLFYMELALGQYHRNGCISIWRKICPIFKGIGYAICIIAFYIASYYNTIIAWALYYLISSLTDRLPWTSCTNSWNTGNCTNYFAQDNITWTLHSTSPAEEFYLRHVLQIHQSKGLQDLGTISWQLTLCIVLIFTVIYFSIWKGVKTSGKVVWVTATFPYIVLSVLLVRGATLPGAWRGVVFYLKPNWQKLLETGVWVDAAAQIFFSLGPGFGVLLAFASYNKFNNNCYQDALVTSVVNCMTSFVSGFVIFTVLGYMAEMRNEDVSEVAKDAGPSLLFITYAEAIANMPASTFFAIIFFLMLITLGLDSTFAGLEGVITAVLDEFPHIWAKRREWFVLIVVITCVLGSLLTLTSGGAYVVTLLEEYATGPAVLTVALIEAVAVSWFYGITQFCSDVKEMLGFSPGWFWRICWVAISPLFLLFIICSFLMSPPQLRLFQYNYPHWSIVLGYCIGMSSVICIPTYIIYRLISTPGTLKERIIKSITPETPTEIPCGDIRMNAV
Item-by-item account of 5-HT (inhibition of reuptake of serotonin, % inhibition)
# output: number + unit

Known results for compounds:
> print(dat)
                                   compound  value.observed
1  CN(C)C(c1ccc(Cl)cc1)C1CCC(CNC(=O)COCC2CCCN(S(=O)(=O)c3ccccc3)C2)CC1 (stereo not shown)             88%
2  CN(C)C(c1ccc(Cl)cc1)C1CCC(CNC(=O)COCCN(C)S(=O)(=O)c2ccc(OC(F)(F)F)cc2)CC1 (stereo not shown)             91%
3  COc1ccc(S(=O)(=O)N2CCCCC2COCC(=O)NCC2CCC(C(c3cccc(F)c3)N(C)C)CC2)cc1OC (stereo not shown)             91%

Read the next record carefully.
# input What reported 5-HT (inhibition of reuptake of serotonin, % inhibition) corresponds to COc1cc(C)c(S(=O)(=O)N2CCN(CCOCC(=O)NCCC3CCC(C(c4ccc(Cl)cc4)N(C)C)CC3)CC2)c(C)c1C (stereo not shown) on serotonin (5-HT) reuptake (Rattus norvegicus, UniProt P31652)?
# output 98%

Cited source: patent US8106055B2
